tgt: Recombinant human oxytocin receptors (Homo sapiens, UniProt P30559)
Construct: expressed in transfected cells; host or cells: CHO or HEK293 cells (membrane fraction)
Sequence (P30559 whole entry): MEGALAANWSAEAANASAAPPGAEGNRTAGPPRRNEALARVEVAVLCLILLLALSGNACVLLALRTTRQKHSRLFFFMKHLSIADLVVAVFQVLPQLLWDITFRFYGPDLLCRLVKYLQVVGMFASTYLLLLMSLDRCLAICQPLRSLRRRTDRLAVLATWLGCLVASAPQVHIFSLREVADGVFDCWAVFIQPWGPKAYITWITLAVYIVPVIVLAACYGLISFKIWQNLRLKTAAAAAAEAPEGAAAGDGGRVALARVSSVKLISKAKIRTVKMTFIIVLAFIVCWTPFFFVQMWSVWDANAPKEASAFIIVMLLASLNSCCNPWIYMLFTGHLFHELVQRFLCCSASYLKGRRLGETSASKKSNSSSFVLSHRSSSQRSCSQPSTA
method: Oxytocin receptor binding assay ([125I]-oxytocin, membrane fraction)
applied_conditions: recombinant human oxytocin receptors expressed in CHO or HEK293 cells, mean ± SEM
parameter_measured: log10 of Ki (log10 of the value in nM)
Reminder: these figures are log10 of reported Ki, in nM before transformation.

Request: Supply log10 of Ki value. Item: CC[C@H](C)[C@@H]1NC(=O)[C@@H](Cc2c[nH]c3ccccc23)NC(=O)CCSCC[C@@H](C(=O)N(C)[C@H](CO)CCCN)NC(=O)[C@H](CC(N)=O)NC(=O)[C@H](CC2CCCCC2)NC1=O [IV]
Result: 0.85

Request: Supply log10 of Ki value. Item: CC[C@H](C)[C@@H]1NC(=O)[C@@H](Cc2c[nH]c3ccccc23)NC(=O)CCSCC[C@@H](C(=O)N(C)[C@H](CO)CCCN)NC(=O)[C@H](CC(N)=O)NC(=O)[C@H](CC(C)C)NC1=O [II]
Result: 0.51

Request: Supply log10 of Ki value. Item: CC[C@@H](C)[C@@H]1NC(=O)[C@H]([C@@H](C)CC)NC(=O)[C@@H](Cc2c[nH]c3ccccc23)NC(=O)CCSCC[C@@H](C(=O)N(C)[C@H](CO)CCCN)NC(=O)[C@H](CC(N)=O)NC1=O [Peptide I]
Result: -0.60

Request: Supply log10 of Ki value. Item: CC[C@H](C)[C@@H]1NC(=O)[C@@H](Cc2c[nH]c3ccccc23)NC(=O)CCSCC[C@@H](C(=O)N(C)[C@H](CO)CCCN)NC(=O)[C@H](CC(N)=O)NC(=O)[C@H](C(C)C)NC1=O [III]
Result: -0.10

Request: Supply log10 of Ki value. Item: CC[C@@H](C)[C@@H]1NC(=O)[C@H]([C@@H](C)CC)NC(=O)[C@@H](Cc2ccc3ccccc3c2)NC(=O)CCSCC[C@@H](C(=O)N(C)[C@H](CO)CCCN)NC(=O)[C@H](CC(N)=O)NC1=O [VI]
Result: -1.00

Request: Supply log10 of Ki value. Item: CC[C@H](C)[C@@H]1NC(=O)[C@H]([C@@H](C)CC)NC(=O)[C@@H](Cc2c[nH]c3ccccc23)NC(=O)CCSCC[C@@H](C(=O)N(C)[C@H](CO)CCCN)NC(=O)[C@H](CC(N)=O)NC1=O [V]
Result: 0.15

Request: Supply log10 of Ki value. Item: CCC(CC)[C@@H]1NC(=O)[C@H]([C@@H](C)CC)NC(=O)[C@@H](Cc2c[nH]c3ccccc23)NC(=O)CCSCC[C@@H](C(=O)N(C)[C@H](CO)CCCN)NC(=O)[C@H](CC(N)=O)NC1=O [VII]
Result: 0.38
